# Assay summary: chemical genetic growth profiling, strain panel (AID 1159580);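 further: tested at 20 µM; growth read once vehicle control cultures reached saturation at 30 °C; lower values mean less growth of the strain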
# Experimental setup: S. cerevisiae deletion strains, growth OD, locus YKL009W, strain mrt4, active compounds read low
In all, about 5,500 compounds went through this assay and about 2,000 (36%) were called active. Roughly 18% stayed inconclusive and do not appear here. Some of the results follow.
Lab note: cut-off is 1. Strictly less in normalized growth is criterion met. Exactly 1 or more is criterion not met.

Some solved entries appear below for comparison.
CCS(=O)(=O)CCn1c([N+](=O)[O-])cnc1C	criterion not met
Nc1ncnc2c1ncn2[C@@H]1O[C@H](CO)[C@@H](O)[C@@H]1O	criterion not met

Consider now this further compound.
Asked: Hello, I'm reviewing records and need to know if normalized growth of O=C1OC(=O)C2C3CCC(O3)C12 (configuration not stated) is below 1. Could you check?
Given back: criterion met
